# assayTarget: T1, Human GDF15 Fc (human, UniProt Q99988 195-308, limits assumed, biotinylated (EZ-Link Sulfo-NHS-Biotinylation Kit) in the SPR assay)
# T1 construct: also called human GDF15-Fc fusion; biotinylated Human GDF15 Fc; not shown: Fc part
# T1 sequence: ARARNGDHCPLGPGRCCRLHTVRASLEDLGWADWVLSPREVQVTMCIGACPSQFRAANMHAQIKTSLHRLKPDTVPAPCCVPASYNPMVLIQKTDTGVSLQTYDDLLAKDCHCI
# methodDescription: BLI Octet; antigen on sensor, 100 nM Fab (monovalent)
valueKind: Kd
Returns: string containing the number followed by the unit.

Look up Kd of GDF15 antibody agent Clone O, Fab (Fab, V domains shown, Fab; CH1 and CL of the Fab not specified; also called Fab of Clone O) VH: QVQLVQSGAEVKKPGATVKVSCKASGYTFDSLGMSWVRQAPGQGLEWMGYISTYSGDTVYAQKLQGRVTMTTDTSTSTAYMELRSLRSDDTAVYYCARESGQQVSALDPWGQGTLVTVSS VL: DIQMTQSPSSVSASVGDRVTITCRASQGISRWLAWYQQKPGKAPKLLIYAASSLQSGVPSRFSGSGSGTDFTLTISSLQPEDFATYYCQQGASFPLTFGGGTKVEIK and report it.
0.016 nM

Fill in Kd for record GDF15 antibody agent Clone S, Fab (Fab, V domains shown, Fab; CH1 and CL of the Fab not specified; also called Fab of Clone S) VH: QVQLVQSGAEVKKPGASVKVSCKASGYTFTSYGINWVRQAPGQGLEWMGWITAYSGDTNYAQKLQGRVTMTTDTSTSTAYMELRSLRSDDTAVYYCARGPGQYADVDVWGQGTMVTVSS VL: DIQLTQSPSSVSASVGDRVTITCRASQGISPWLAWYQQKPGKAPKLLIYAASSLQSGVPSRFSGSGSGTDFTLTISSLQPEDFATYYCQQANSFPITFGGGTKVEIK
0.48 nM

Please indicate Kd recorded for GDF15 antibody agent Clone E, Fab (Fab, V domains shown, Fab; CH1 and CL of the Fab not specified; also called Fab of Clone E) VH: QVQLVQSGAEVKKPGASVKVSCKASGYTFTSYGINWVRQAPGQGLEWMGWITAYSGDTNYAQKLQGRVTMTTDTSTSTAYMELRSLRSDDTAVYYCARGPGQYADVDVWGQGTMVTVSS VL: DIQMTQSPSSVSASVGDRVTITCRASQGISSWLAWYQQKPGKAPKLLIYAASSLQSGVPSRFSGSGSGTDFTLTISSLQPEDFATYYCQQANSFPITFGGGTKVEIK
0.921 nM

Provide measured Kd value, entry: GDF15 antibody agent Clone K, Fab (Fab, V domains shown, Fab; CH1 and CL of the Fab not specified; also called Fab of Clone K) VH: QVQLVQSGAEVKKPGASVKVSCKASGYTFTNEGISWVRQAPGQGLEWMGWISAYTADTFYAQKLQGRVTMTTDTSTSTAYMELRSLRSDDTAVYYCARTRHDTSGLRFDYWGQGTLVTVSS VL: DIQMTQSPSSVSASVGDRVTITCRASQGIDSWLAWYQQKPGKAPKLLIYAASSLQSGVPSRFSGSGSGTDFTLTISSLQPEDFATYYCQQVHSFPITFGGGTKVEIK
2.11 nM

Provide measured Kd value, entry: GDF15 antibody agent Clone I, Fab (Fab, V domains shown, Fab; CH1 and CL of the Fab not specified; also called Fab of Clone I) VH: QVQLVQSGAEVKKPGASVKVSCKASGYTFTDEGINWVRQAPGQGLEWMGWITAYSGDTVYAQKLQGRVTMTTDTSTSTAYMELRSLRSDDTAVYYCARGPGQYADVDVWGQGTMVTVSS VL: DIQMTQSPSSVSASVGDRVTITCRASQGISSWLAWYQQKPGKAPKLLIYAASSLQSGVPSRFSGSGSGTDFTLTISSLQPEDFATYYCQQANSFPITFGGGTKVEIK
1.25 nM
